# experimentalSystem: sigma-1 receptor (sigma-1 sites) (Cavia porcellus)
# Sequence (Q60492 whole entry): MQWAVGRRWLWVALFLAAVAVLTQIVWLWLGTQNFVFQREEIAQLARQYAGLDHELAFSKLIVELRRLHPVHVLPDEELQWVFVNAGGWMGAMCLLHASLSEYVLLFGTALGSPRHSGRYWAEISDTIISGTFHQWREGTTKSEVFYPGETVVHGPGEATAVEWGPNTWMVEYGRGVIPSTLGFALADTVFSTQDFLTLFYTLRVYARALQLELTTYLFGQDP
measuredMetric: pKi
Give bare numbers, as −log10 of the molar value.

What pKi value was documented for this compound, "CCCCCCCCCCCCNCCCc1ccc([N+](=O)[O-])cc1" ?
5.29

----------
Assign sigma-2/sigma-1 to each entry below.
# experimentalSystem: sigma-2 receptor (sigma-2 sites) (Rattus norvegicus, UniProt Q5U3Y7)
# Sequence (Q5U3Y7 1-176): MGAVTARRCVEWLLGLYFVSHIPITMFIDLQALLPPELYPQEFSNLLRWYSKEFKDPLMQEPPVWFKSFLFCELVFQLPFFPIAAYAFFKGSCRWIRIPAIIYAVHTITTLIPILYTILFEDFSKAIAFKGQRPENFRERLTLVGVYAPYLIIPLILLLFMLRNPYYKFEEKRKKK
# measurementNotes: Competitive displacement of [3H]-DTG binding, rat liver membranes
# conditionDetails: ratio from the KI value of sigma-1 and sigma-2 sites (membranes)
Give bare numbers.

CCCCNCCCc1ccc([N+](=O)[O-])cc1
7
CCCCCCCCCCCCNCCCc1ccc([N+](=O)[O-])cc1
0.5
CCCCCCCCCCCCCCCCCCNCCCc1ccc([N+](=O)[O-])cc1
0.3
CCCCCCCNCCCc1ccccc1
2

Here are 2 compounds. What values of sigma-2/sigma-1 were reported for them?
1. CCCCCCCCCCCCCCCCCCNCCCc1ccccc1
2. CCCCCCCCCCCCNCCCc1ccccc1

[0.6, 0.4]

Items follow; give sigma-2/sigma-1 for each.
1. CCCCCCCNCCCc1ccc([N+](=O)[O-])cc1
2. CCCCNCCCc1ccccc1

1. 1
2. 2
